- Test system: HeLa
- experiment.summary: cells
- Assay type: functional, cell-based
- condition.description: Homo sapiens, 24 h
- Description: Cytotoxicity against human HeLa cells assessed as inhibition of cell viability after 24 hrs by MTT assay
parameter: pIC50
Hey, just a heads up that pIC50 is the negative log base 10 of the concentration in molar.

- compound: "CC[C@@]1(O)C(=O)OCc2c1cc1n(c2=O)Cc2cc3ccccc3nc2-1"
  assay.result: 5.05
- compound: "CO/N=C1\\C[C@@H](c2ccc(OC)cc2)N(C)[C@@H](c2ccc(OC)cc2)[C@@H]1C"
  assay.result: 4.09
- compound: "CO/N=C1\\C[C@@H](c2ccc(Br)cc2)N[C@@H](c2ccc(Br)cc2)[C@@H]1C (relative stereo)"
  assay.result: 4.60

[Q] What value of measured pIC50 is listed for `CO/N=C1/[C@@H](C)[C@H](c2ccc(OC)cc2)N[C@H](c2ccc(OC)cc2)[C@H]1C` ?
[A] 4.03

[Q] // pIC50 lookup, key: `CO/N=C1/[C@@H](C)[C@H](c2ccc(C)cc2)N[C@H](c2ccc(C)cc2)[C@H]1C`
[A] 4.26

[Q] Please look up its pIC50: `CO/N=C1\C[C@@H](c2ccc(C)cc2)N(C)[C@@H](c2ccc(C)cc2)[C@@H]1C`
[A] 4.32

[Q] Returns the measured pIC50 for the input compound. Input: COc1cc([C@@H]2c3cc4c(cc3[C@@H](O[C@@H]3O[C@@H]5CO[C@@H](C)O[C@H]5[C@H](O)[C@H]3O)[C@H]3COC(=O)[C@H]23)OCO4)cc(OC)c1O [ETOPOSIDE]
[A] 4.63

[Q] Entry CO/N=C1\C[C@@H](c2ccccc2)N[C@@H](c2ccccc2)C1 (relative stereo) : reported pIC50 = ?
[A] 3.92

====

- Tested on: HeLa
- experiment.summary: cells
- Type: functional, cell-based
- condition.description: Homo sapiens, 24 h
Kindly apply the following: 1 if IC50 is less than 50 µM, -1 in every other case.

- molecule: "CCOc1ccc([C@H]2N[C@@H](c3ccc(OCC)cc3)[C@H](C)/C(=N/OC)[C@@H]2C)cc1"
  target.or.test.system: "HeLa"
  classification: -1
- molecule: "CC[C@@H]1/C(=N/OC)C[C@@H](c2ccccc2)N(C)[C@H]1c1ccccc1"
  target.or.test.system: "HeLa"
  classification: 1
- molecule: "CO/N=C1\\C[C@@H](c2ccccc2)N[C@@H](c2ccccc2)[C@@H]1C (relative stereo)"
  target.or.test.system: "HeLa"
  classification: -1

[Q] Item `CO/N=C1\C[C@@H](c2ccc(F)cc2)N(C)[C@@H](c2ccc(F)cc2)[C@@H]1C` : IC50 beneath 50 µM, strictly?
[A] 1

[Q] Decide: IC50 of `CO/N=C1\C[C@@H](c2ccc(C)cc2)N[C@@H](c2ccc(C)cc2)[C@@H]1C` strictly below 50 µM?
[A] -1

[Q] Just wondering, is IC50 of `CO/N=C1\C[C@@H](c2cccc(F)c2)N[C@@H](c2cccc(F)c2)[C@@H]1C` below 50 µM?
[A] 1

[Q] IC50 under 50 µM? Item: `CO/N=C1\C[C@@H](c2ccc(Cl)cc2)N(C)[C@@H](c2ccc(Cl)cc2)[C@@H]1C`
[A] 1

[Q] Identify whether the molecule `CO/N=C1\C[C@@H](c2ccc(OC)cc2)N[C@@H](c2ccc(OC)cc2)[C@@H]1C` records IC50 below 50 µM.
[A] -1

[Q] Please let me know if `CO/N=C1/[C@@H](C)[C@H](c2cccc(F)c2)N[C@H](c2cccc(F)c2)[C@H]1C` shows IC50 below 50 µM.
[A] 1

[Q] Quick check: IC50 of `CC[C@@H]1/C(=N/OC)C[C@@H](c2ccccc2)N[C@H]1c1ccccc1` under 50 µM?
[A] -1
